Population Fragmented Nuclei (%) values for the compounds below.
Tested on: Fibroblast
Assay: Multiplex assay against human fibroblast
Assay type: toxicity, cell-based
Conditions: 48 h, 1 µM, compound concentration 1 uM, number of replicates 2
recorded_metric: Population Fragmented Nuclei (%)

compound	recorded_metric	value
CS(=O)(=O)c1ccc(C(=O)Nc2cc(F)cc(COc3ccc(Br)cc3CN3CC[C@H](O)C3)c2)c(Cl)c1.O=CO	Population Fragmented Nuclei (%)	21
Cn1ncc(NC(=O)c2nc(-c3c(F)cccc3F)sc2N)c1N1CC[C@@H](N)[C@H](F)CC1	Population Fragmented Nuclei (%)	20
Br.Cc1cccc(C2CN(C)CCc3c2cc(O)c(O)c3Cl)c1 (stereo not given)	Population Fragmented Nuclei (%)	13
CN(C)C/C=C/C(=O)Nc1ccc(C(=O)Nc2cccc(Nc3ncc(Cl)c(-c4c[nH]c5ccccc45)n3)c2)cc1	Population Fragmented Nuclei (%)	15
Cc1cccc(S(=O)(=O)N(C)[C@H](C)CCN2CCC(C)CC2)c1.Cl	Population Fragmented Nuclei (%)	15

---

Test system: HEK-293T
Experiment: Multiplex assay against HEK293T
Format: toxicity, cell-based
Conditions: human, 48 h, 1 µM, compound concentration 1 uM, number of replicates 2

entry_smiles	Population Apoptotic (%)
CS(=O)(=O)c1ccc(C(=O)Nc2cccc(COc3ccc(Br)cc3CN3CC[C@H](O)C3)c2)cc1.O=CO	46
Cc1ccc2c(c1CCC(=O)O)CC[C@@H](NS(=O)(=O)c1ccc(Cl)cc1)C2	11
Cn1ncc(NC(=O)c2nc(-c3c(F)cccc3F)sc2N)c1N1CC[C@@H](N)[C@H](F)CC1	15
N=C(N)NCCC[C@H](NC(=O)COCC(c1ccccc1)c1ccccc1)C(=O)O.O=C(O)C(F)(F)F	12

---

Test system: Fibroblast
Assay: Multiplex assay against human fibroblast
Assay type: toxicity, cell-based
Details: 12 h, 1 µM, compound concentration 1 uM, number of replicates 2

entry_smiles	Population Apoptotic (%)
Cc1onc(-c2ccccc2Cl)c1C(=O)N(C)c1ccc(Cl)cc1	35
COc1nc2ccc([C@@](O)(c3ccc(Cl)cc3)c3cncn3C)cc2c(Cl)c1Cc1ccc(-n2cccn2)cc1	30
COc1ncc(-c2cc(-c3ncc(CN4C[C@@H](C)O[C@@H](C)C4)o3)c3cn[nH]c3c2)cc1NS(C)(=O)=O	48
CN1CCN(c2ccc(-n3cc(-c4ccncc4OCC4CCNCC4)cn3)cc2)CC1	44

---

Test system: HEK-293T
Assay: Multiplex assay against HEK293T
Assay type: toxicity, cell-based
Conditions: human, 24 h, 1 µM, compound concentration 1 uM, number of replicates 2
Population Mitochondria Different-Phenotype (%) values for the molecules below.
recorded_metric: Population Mitochondria Different-Phenotype (%)

molecule	value
COc1ccc(NC(=O)c2ccc(-c3ccc(-c4noc(C)n4)cc3C)cc2)cc1OCCN(C)C.Cl	19
CCCN(CCc1cccs1)[C@H]1CCc2c(O)cccc2C1 [ROTIGOTINE]	3
CN[C@@H]1CC[C@@H](c2ccc(Cl)c(Cl)c2)c2ccccc21.Cl	10
COc1cc(C(=O)NC2CCN(C)CC2)ccc1Nc1ncc(C(F)(F)F)c(NCc2ccc(C)cc2N(C)S(C)(=O)=O)n1.O=CO.O=CO	17
COc1cc(OC)cc(C(=O)NNC(=O)Nc2cccc3ccccc23)c1	4
CCN1CCN(Cc2ccc(C(=O)Nc3ccc(C)c(Oc4ccc5c(c4)CC(=O)N5)c3)cc2C(F)(F)F)CC1.Cl.Cl	9
Cn1ncc(NC(=O)c2nc(-c3c(F)cccc3F)sc2N)c1N1CC[C@@H](N)[C@H](F)CC1	4

---

Test system: HEK-293T
Assay: Multiplex assay against HEK293T
Type: toxicity, cell-based
Conditions: human, 48 h, 1 µM, compound concentration 1 uM, number of replicates 2
recorded_metric: Population Pyknosed Nuclei (%)

compound	target_or_system	value
CCCN(CCc1cccs1)[C@H]1CCc2c(O)cccc2C1 [ROTIGOTINE]	HEK-293T	2
C[C@H](N)Cn1ccc2cc(F)c(Cl)cc21.O=C(O)/C=C/C(=O)O	HEK-293T	2
CN1CCc2cc(Cl)c(O)cc2[C@@H](c2ccccc2)C1.Cl	HEK-293T	3
CN(C)CC#Cc1ccc2[nH]c3c(c2c1)-c1nc(N)ncc1CCC3	HEK-293T	4
COc1cc(C(=O)NC2CCN(C)CC2)ccc1Nc1ncc(C(F)(F)F)c(NCc2ccc(C)cc2N(C)S(C)(=O)=O)n1.O=CO.O=CO	HEK-293T	3

---

Tested on: HEK-293T
Assay: Multiplex assay against HEK293T
Type: toxicity, cell-based
Conditions: human, 48 h, 1 µM, compound concentration 1 uM, number of replicates 2
recorded_metric: Population Mitochondria Different-Phenotype (%)

molecule	value
N=C(N)NCCC[C@H](NC(=O)COCC(c1ccccc1)c1ccccc1)C(=O)O.O=C(O)C(F)(F)F	0
CCCN(CCc1cccs1)[C@H]1CCc2c(O)cccc2C1	0
C[C@@H](Oc1cc(-n2cnc3ccc(OC4CCN(C)CC4)cc32)sc1C(N)=O)c1ccccc1Cl [GSK-579289A]	67
COc1cc(Br)c(S(=O)(=O)Nc2ccc(C(F)(F)F)c(O[C@@H]3CCN(C)C3)c2)cc1OC	0
C[C@H](N)Cn1ccc2cc(F)c(Cl)cc21.O=C(O)/C=C/C(=O)O	0
COc1cc(OC)cc(C(=O)NNC(=O)Nc2cccc3ccccc23)c1	0

---

Tested on: HEK-293T
Assay: Multiplex assay against HEK293T
Type: toxicity, cell-based
Settings: human, 24 h, 1 µM, compound concentration 1 uM, number of replicates 2

entry_smiles	Population Pyknosed Nuclei (%)
COc1nc2ccc([C@@](O)(c3ccc(Cl)cc3)c3cncn3C)cc2c(Cl)c1Cc1ccc(-n2cccn2)cc1	8%
COc1cc(Br)c(S(=O)(=O)Nc2ccc(C(F)(F)F)c(O[C@@H]3CCN(C)C3)c2)cc1OC	8%
COCCN1CCN(CCn2ccc(Nc3ncc4c(n3)-c3c(nn(C)c3-c3ccccc3)C[C@H]4C)n2)CC1	6%
CCCNc1ccc2ncc(-c3ccncc3)n2n1	6%
Cc1cc(NC(=O)c2cccc(NC(=O)/C=C/CN(C)C)c2)ccc1Nc1nccc(-c2cccnc2)n1	12%

---

Test system: Fibroblast
Assay: Multiplex assay against human fibroblast
Assay type: toxicity, cell-based
Settings: 24 h, 10 µM, compound concentration 10 uM, number of replicates 2
Population Mitochondria Different-Phenotype (%) values for the compounds below.
recorded_metric: Population Mitochondria Different-Phenotype (%)

compound	value
COCCNC1CCC(Nc2cc(-c3csc(NCC4(C#N)CCOCC4)n3)c(Cl)cn2)CC1 (stereo unspecified)	18
CCCCOc1c(C(=O)c2c(F)cc(C)cc2F)c[nH]c2nncc1-2	1
CN[C@@H]1C[C@H]2O[C@@](C)([C@@H]1OC)n1c3ccccc3c3c4c(c5c6ccccc6n2c5c31)C(=O)NC4	0
CCNc1ccc(-c2nn(-c3ccccc3C)c3c2C(C)Cc2nc(NC(=O)OC)sc2-3)cn1.O=C(O)C(F)(F)F (stereo unspecified)	12
Br.Cc1cccc(C2CN(C)CCc3c2cc(O)c(O)c3Cl)c1 (stereo unspecified)	0
CC(C)N(CCCCOCC(=O)NS(C)(=O)=O)c1cnc(-c2ccccc2)c(-c2ccccc2)n1	1

---

System: HEK-293T
Assay: Multiplex assay against HEK293T
Type: toxicity, cell-based
Conditions: human, 24 h, 1 µM, compound concentration 1 uM, number of replicates 2
recorded_metric: Population Hoechst High Intensity Objects (%)

compound	units_of_measure	value
CC(C)S(=O)(=O)c1ccccc1Nc1nc(N[C@@H]2CCCN(CCCCCCCNC(=O)COc3cccc4c3C(=O)N(C3CCC(=O)N(C)C3=O)C4=O)C2)ncc1Cl (stereo partly drawn)	%	7
C[C@H](N)Cn1ccc2cc(F)c(Cl)cc21.O=C(O)/C=C/C(=O)O	%	7
CN1CCc2cc(Cl)c(O)cc2[C@@H](c2ccccc2)C1.Cl	%	7

---

Tested on: Fibroblast
Assay: Multiplex assay against human fibroblast
Assay type: toxicity, cell-based
Conditions: 24 h, 10 µM, compound concentration 10 uM, number of replicates 2
Population Pyknosed Nuclei (%) values for the compounds below.

compound	units_of_measure	Population Pyknosed Nuclei (%)
COCCNC1CCC(Nc2cc(-c3csc(NCC4(C#N)CCOCC4)n3)c(Cl)cn2)CC1 (stereo unspecified)	%	12
CS(=O)(=O)c1ccc(C(=O)Nc2cccc(COc3ccc(Br)cc3CN3CC[C@H](O)C3)c2)cc1.O=CO	%	10
CS(=O)(=O)c1ccc(C(=O)Nc2cccc(COc3ccc(Br)cc3CN[C@H]3CCC[C@@H]3O)c2)c(Cl)c1.O=CO	%	32
CCCNc1ccc2ncc(-c3ccncc3)n2n1	%	16
N=C(N)NCCC[C@H](NC(=O)COCC(c1ccccc1)c1ccccc1)C(=O)O.O=C(O)C(F)(F)F	%	13
CN1CCCN(C(=O)c2cccc(-c3ccc(/C=C4/C(=O)Nc5ccc(Cl)cc54)o3)c2)CC1	%	78

---

Population Membrane Permeable-Phenotype (%) values for the molecules below.
Test system: Fibroblast
Test: Multiplex assay against human fibroblast
Type: toxicity, cell-based
Conditions: 24 h, 10 µM, compound concentration 10 uM, number of replicates 2
recorded_metric: Population Membrane Permeable-Phenotype (%)

molecule	target_or_system	value
CCCCOc1c(C(=O)c2c(F)cc(C)cc2F)c[nH]c2nncc1-2	Fibroblast	4%
CN[C@@H]1C[C@H]2O[C@@](C)([C@@H]1OC)n1c3ccccc3c3c4c(c5c6ccccc6n2c5c31)C(=O)NC4 [STAUROSPORINE]	Fibroblast	50% [middle of 4 runs]
Cn1cc(-n2cnc3c(NCc4nc5cc(Cl)c(Cl)cc5[nH]4)nc(N4CCOCC4)nc32)cn1	Fibroblast	14%
CN(C)CCN(Cc1ccc(-c2ccc(CNCCc3ccccc3)cc2)cc1)C(=O)CCC1CCCC1.Cl.Cl	Fibroblast	33%
N=C(N)NCCC[C@H](NC(=O)COCC(c1ccccc1)c1ccccc1)C(=O)O.O=C(O)C(F)(F)F	Fibroblast	7%
C=CC(=O)Nc1ccc2[nH]c(=O)n(C3CCN(Cc4ccc(-c5ccc6c(c5)NC(=O)CO6)cc4)CC3)c2c1 [RL2578]	Fibroblast	2%
COCCNC1CCC(Nc2cc(-c3csc(NCC4(C#N)CCOCC4)n3)c(Cl)cn2)CC1 (configuration not stated)	Fibroblast	11%
